Biological target: Retinoic acid receptor alpha (Homo sapiens) (UniProt P10276)
Sequence (P10276 whole entry, looked up): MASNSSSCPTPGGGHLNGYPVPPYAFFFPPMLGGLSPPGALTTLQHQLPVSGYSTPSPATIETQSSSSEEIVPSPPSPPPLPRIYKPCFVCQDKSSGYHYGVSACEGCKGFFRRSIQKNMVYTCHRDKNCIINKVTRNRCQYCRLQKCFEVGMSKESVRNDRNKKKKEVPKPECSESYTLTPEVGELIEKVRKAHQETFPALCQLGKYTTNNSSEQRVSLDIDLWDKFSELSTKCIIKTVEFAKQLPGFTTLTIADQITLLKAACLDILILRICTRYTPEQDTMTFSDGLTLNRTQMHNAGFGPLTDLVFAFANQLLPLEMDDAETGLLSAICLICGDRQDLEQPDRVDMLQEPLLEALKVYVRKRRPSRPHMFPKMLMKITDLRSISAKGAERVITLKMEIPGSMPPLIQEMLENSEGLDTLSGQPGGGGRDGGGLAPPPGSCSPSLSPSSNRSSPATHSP
Test: ATG_DR5_RAR_CIS: Attagene CIS-FACTORIAL HepG2 Assay for human Retinoic Acid Receptor Alpha (RARE), DR5 submotif (AID 2282934)
Settings: HepG2 Attagene cis-factorial RARE DR5 reporter, mRNA; actives raise or lower the signal
Calls of active or inactive are those of the source. How the source made its calls: active means hit-call score of the fitted dose curve at least 0.9, where 1 is the maximum; inactive means score below 0.9.
Labels: 1 (yes) (active), 0 (no) (inactive)

CCC(=O)O[C@H]1CC[C@H]2[C@@H]3CCC4=CC(=O)CC[C@]4(C)[C@H]3CC[C@]12C; 0 (no)
CC(C)(O)C(=O)Nc1ccc([N+](=O)[O-])c(C(F)(F)F)c1; 0 (no)
COc1ccc(O)c(C(C)(C)C)c1; 0 (no)
ClC1=C(Cl)[C@]2(Cl)[C@@H]3[C@@H]4C[C@@H]([C@H]5O[C@@H]45)[C@@H]3[C@@]1(Cl)C2(Cl)Cl; 1 (yes)
ClC1=C(Cl)[C@]2(Cl)[C@@H]3[C@@H](Cl)[C@H]4O[C@H]4[C@@H]3C1(Cl)C2(Cl)Cl; 1 (yes)
Cc1cc2c3c(c1)C(c1ccccc1)=N[C@@H](NC(=O)c1ccncc1)C(=O)N3CC2; 0 (no)
COS(=O)(=O)OC; 0 (no)
O=C(NC(=O)c1cc(F)c(F)cc1Cl)Nc1cc(F)ccc1N1CCC(C(=O)O)CC1; 1 (yes)
Cc1ccccc1O; 0 (no)

###

Read-out: Apolipoprotein A-V (APOA5) gene, APOA5 (gene 116519)
Assay: LTEA_HepaRG_APOA5: Life Technologies and Expression Analysis (LTEA) Assay for Apolipoprotein A-V (APOA5) gene using HepaRG (AID 2283474)
Settings: mRNA level, 48 h; actives raise or lower the signal
Activity calls are given as the source filed them. How the source made its calls: active means hit-call score of the fitted dose curve at least 0.9, where 1 is the maximum; inactive means score below 0.9.
Outcomes: Y = active, N = inactive

CC(C)(c1ccccc1)c1ccc(O)cc1; Y
CN(C)CCO; N
O=S(=O)(O)C(F)(F)C(F)(F)C(F)(F)C(F)(F)F; N
O=C(NC(=O)c1c(F)cccc1F)Nc1cc(Cl)c(OC(F)(F)C(F)F)c(Cl)c1; N

###

Read-out: Human Leukocyte Antigen - DR isotype (HLADR), HLA-DRA (gene 3122)
Test: BSK_BE3C_HLADR: BioMAP Diversity Plus: BE3C Assay for Human Leukocyte Antigen - DR isotype (HLADR) Biomarker Activity (AID 2283032)
Settings: primary human bronchial epithelial cells; actives raise or lower the signal
Protocol: BSK_BE3C is a cell-based, multiplexed-readout assay that uses bronchial epithelial cell, a human lung primary cell, with measurements taken at 24 hours after chemical dosing in a 96-well plate.BSK_BE3C_HLADR is an assay component measured in the BSK_BE3C assay. It measures HLA-DR antibody related to regulation of gene expression using ELISA technology.Data from the assay component BSK_BE3C_HLADR was analyzed into 1 assay endpoint. […]
Active and inactive are the calls of the source. The calls were made as follows: active = hit-call score of the fitted dose curve at least 0.9, where 1 is the maximum; inactive = score below 0.9.
Property Name: AC50

ClC1=C(Cl)[C@]2(Cl)[C@@H]3[C@@H]4C[C@@H]([C@H]5O[C@@H]45)[C@@H]3[C@@]1(Cl)C2(Cl)Cl; inactive
CCCCCCCCOC(=O)c1ccccc1C(=O)OCCCCCCCC; inactive
O=C(O)C(F)(F)C(F)(F)C(F)(F)C(F)(F)C(F)(F)F; inactive
Oc1ccc(C(c2ccc(O)cc2)(C(F)(F)F)C(F)(F)F)cc1; 20.1 µM (active)

###

Read-out: Vascular cell adhesion molecule 1 (VCAM1), VCAM1 (gene 7412)
Test: BSK_hDFCGF_VCAM1: BioMAP Diversity Plus: hDFCGF Assay for Vascular cell adhesion molecule 1 (VCAM1) Biomarker Activity (AID 2283065)
Settings: primary human foreskin fibroblasts; actives raise or lower the signal
The source made the active and inactive calls. Rule for the calls: active = hit-call score of the fitted dose curve at least 0.9, where 1 is the maximum; inactive = score below 0.9.
Outcome codes: yes = active, no = inactive

Cc1ccc(O)c(C)c1; no
Cc1cc(O)ccc1Cl; no
Cc1cccc(C)c1N; no
Cc1ccccc1CO[C@@H]1C[C@@]2(C(C)C)CC[C@]1(C)O2; no
COc1ccc(O)c(C(C)(C)C)c1; no
CCOC(=O)C(O)(c1ccc(Cl)cc1)c1ccc(Cl)cc1; yes
c1ccc(-c2ccccc2)cc1; no
CC(C)(c1ccccc1)c1ccc(O)cc1; yes
COS(=O)(=O)OC; no
C=CC(=O)NCNC(=O)C=C; no

###

Read-out: Interleukin-1 alpha (IL1a), IL1A (gene 3552)
Test: BSK_LPS_IL1a: BioMAP Diversity Plus: LPS Assay for Interleukin-1 alpha (IL1a) Biomarker Activity (AID 2283080)
Settings: primary human HUVEC with PBMC; actives raise or lower the signal
The source made the active and inactive calls. How the source made its calls: active means hit-call score of the fitted dose curve at least 0.9, where 1 is the maximum; inactive means score below 0.9.
Outcome codes: active, inactive

Cc1cccc([N+](=O)[O-])c1; inactive
Cc1cc2c3c(c1)C(c1ccccc1)=N[C@@H](NC(=O)c1ccncc1)C(=O)N3CC2; active
O=C(NC(=O)c1cc(F)c(F)cc1Cl)Nc1cc(F)ccc1N1CCC(C(=O)O)CC1; inactive
Clc1ccc(C(c2ccccc2Cl)C(Cl)(Cl)Cl)cc1 (stereo not drawn); active
Oc1ccc(C(c2ccc(O)cc2)(C(F)(F)F)C(F)(F)F)cc1; active
Cc1ccccc1O; inactive
ClC(Cl)=C(c1ccc(Cl)cc1)c1ccc(Cl)cc1; active
ClC1=C(Cl)[C@]2(Cl)[C@@H]3[C@@H]4C[C@@H]([C@H]5O[C@@H]45)[C@@H]3[C@@]1(Cl)C2(Cl)Cl; inactive
ClC1=C(Cl)[C@]2(Cl)[C@@H]3[C@H]4C[C@H]([C@@H]5O[C@H]45)[C@@H]3[C@@]1(Cl)C2(Cl)Cl; inactive
CCCCCCCCCC[N+](C)(C)CCCCCCCCCC; active
COS(=O)(=O)OC; inactive
Nn1cnnc1; inactive
Nc1ccc(-c2ccc(N)cc2)cc1; inactive
CCCN(CCC)N=O; inactive
Cc1cccc(C)c1N; inactive
C[C@]12CCC(=O)C=C1CC[C@@H]1[C@@H]2CC[C@@]2(C)[C@H]1CC[C@]2(C)O; inactive
O=C(O)C(F)(F)C(F)(F)C(F)(F)C(F)(F)C(F)(F)F; inactive
O=C(N[C@H]1CN2CCC1CC2)c1cc2ccoc2cn1; inactive

###

Read-out: Bcl-2 (BAX) gene, BAX (gene 581)
Test: LTEA_HepaRG_BAX: Life Technologies and Expression Analysis (LTEA) Assay for Bcl-2 (BAX) gene using HepaRG (AID 2283470)
Details: mRNA level, 48 h; actives raise or lower the signal
The source made the active and inactive calls. How the source made its calls: active means hit-call score of the fitted dose curve at least 0.9, where 1 is the maximum; inactive means score below 0.9.
Possible outcomes: active, inactive

O=C(O)C(F)(F)C(F)(F)C(F)(F)C(F)(F)C(F)(F)C(F)(F)C(F)(F)C(F)(F)F; active
O=C(NC(=O)c1cc(F)c(F)cc1Cl)Nc1cc(F)ccc1N1CCC(C(=O)O)CC1; inactive
Cc1ccccc1CO[C@@H]1C[C@@]2(C(C)C)CC[C@]1(C)O2; inactive
C=CC(N)=O; inactive
C1CC2OC2CC1C1CO1 (stereo unspecified); inactive
Oc1c(Cl)c(Cl)c(Cl)c(Cl)c1Cl; inactive
CCC(C)(CC)c1cc(NC(=O)c2c(OC)cccc2OC)on1; inactive
Cc1cccc([N+](=O)[O-])c1; inactive
NS(=O)(=O)C(F)(F)C(F)(F)C(F)(F)C(F)(F)C(F)(F)C(F)(F)C(F)(F)C(F)(F)F; inactive
C[C@]12CCC(=O)C=C1CC[C@@H]1[C@@H]2CC[C@]2(C)C(=O)CC[C@@H]12; inactive
CCCCCCCCCC[N+](C)(C)CCCCCCCCCC; active
Clc1ccc(C(Cl)(Cl)Cl)cc1; inactive
CCCCCCCCOC(=O)c1ccccc1C(=O)OCCCCCCCC; inactive
O=C(O)C(F)(F)C(F)(F)C(F)(F)C(F)(F)C(F)(F)C(F)(F)C(F)(F)C(F)(F)C(F)(F)F; active
Cc1ccccc1[N+](=O)[O-]; inactive
Cc1cc(O)ccc1Cl; inactive
COc1ccc(O)c(C(C)(C)C)c1; inactive
N#Cc1ccc(N(CC(N)=O)CC(F)(F)F)cc1C(F)(F)F; inactive
CCC(=O)O[C@H]1CC[C@H]2[C@@H]3CCC4=CC(=O)CC[C@]4(C)[C@H]3CC[C@]12C; inactive
Oc1ccc(Cl)cc1Cl; inactive
Cc1cc2c3c(c1)C(c1ccccc1)=N[C@@H](NC(=O)c1ccncc1)C(=O)N3CC2; inactive

###

Read-out: Transforming growth factor beta 1 (TGFb1), TGFB1 (gene 7040)
Experiment: BSK_BE3C_TGFb1: BioMAP Diversity Plus: BE3C Assay for Transforming growth factor beta 1 (TGFb1) Biomarker Activity (AID 2283036;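 on Outcome: TGF-b1 protein level measured by ELISA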)
Conditions: primary human bronchial epithelial cells; actives raise or lower the signal
Activity calls are given as the source filed them. How the source made its calls: active means hit-call score of the fitted dose curve at least 0.9, where 1 is the maximum; inactive means score below 0.9.
Outcome codes: active, inactive

NS(=O)(=O)C(F)(F)C(F)(F)C(F)(F)C(F)(F)C(F)(F)C(F)(F)C(F)(F)C(F)(F)F; active
CCC(C)c1cc([N+](=O)[O-])cc([N+](=O)[O-])c1O (stereo not given); active
Cc1ccccc1O; inactive
CCCCCCCCCC[N+](C)(C)CCCCCCCCCC; active
ClC1=C(Cl)[C@]2(Cl)[C@@H]3[C@H]4C[C@H]([C@@H]5O[C@H]45)[C@@H]3[C@@]1(Cl)C2(Cl)Cl; inactive
